Each recorded value in this set is attributed to the nanobody polyreactivity screen of Harvey et al. (2022).

assay_overview: yeast display, Sf9 membrane polyspecificity reagent, FACS + sequencing; frameworks hold sequencing errors
assay_metric: polyreactivity (PSR sort gate)

QVQLVESGGGLVQAGGSLRLSCAASGRIFPHNAMGWYRQAPGNERELVAAISSHGGSTYYAVSVKGRFTISRDNAKNTVYLQMNSLKPEDTAVYYCAKYRYFAGDGDYWGQGTQVTVSS = low polyreactivity
QVQLVESGGGLVQAGGSLRLSCAASGRIFTIYAMGWYRQAPGKERELVAAISDRGTRTYYADSVKGRFTISRDNAKNTVYLQMNSLKPEDTAVYYCATDALYTYGYDYWGQGTQVTVSS = low polyreactivity
QVHLVESGGGLVQAGGSLRLSCAASGRIFYYNTMGWYRQAPGKERELVAAITTNGGSTYYADSVKGRFTISRDNAKNTVYLQMNSLKPEDTAVYYCNRDRYPYYYAYNYWGQGTQVTVSS = low polyreactivity
QLKLVESGGGLVQAGASLRLSCAASGSIFYGYTMGWYRQAPGKERELVAGISTYYADSVKGRFTISRDNAKNTVYLQMNSLKPEDTEVYYCAADYSSTTSEYDYWGQGTQVTVSS = low polyreactivity
